targetOrTestSystem: BRD4-BD1 (Homo sapiens (Human))
testProtocol: AlphaLisa bromodomain binding assay, BRD4-BD1
measurementContext: Table 6; read-out: BRD4(1) IC50
Kindly apply the following: criterion met if IC50 is less than 500 nM, criterion not met in every other case.

For CN(C)C1CCN(c2ccc(Nc3ncc4scc(-c5cccc(NS(=O)(=O)C(C)(C)C)c5)c4n3)cc2F)CC1 , is the recorded IC50 below the cut-off of 500 nM?
criterion met

Field: below-cutoff. Rule: recorded IC50 strictly less than 500 nM. Subject: CC(C)(C)S(=O)(=O)Nc1cccc(-n2ccc3cnc(NC4CCNCC4)nc32)c1
criterion not met

hey, is IC50 for CN(C)C1CCN(c2ccc(Nc3ncc4ccn(-c5cccc(NS(=O)(=O)C(C)(C)C)c5)c4n3)cc2F)CC1 [drawing 401] lower than 500 nM or not?
criterion met

For this molecule, is IC50 lower than 500 nM? CNCC1CCN(c2ccc(Nc3ncc4ccn(-c5cccc(NS(=O)(=O)C(C)(C)C)c5)c4n3)cc2F)CC1
criterion met

In plain terms, does CN(C)C1CCN(Cc2ccc(Nc3ncc4ccn(-c5ccc(F)c(NS(=O)(=O)C(C)(C)C)c5)c4n3)cc2F)CC1 come in under 500 nM for IC50?
criterion met

Report whether reported IC50 is lower than 500 nM (strictly) for CNC1CCN(c2ccc(Nc3ncc4scc(-c5ccc(F)c(NS(=O)(=O)C(C)(C)C)c5)c4n3)cc2F)CC1 [drawing 459]
criterion met

Lab note: IC50 threshold 500 nM. Does this molecule come in strictly under it? CC(C)(C)S(=O)(=O)Nc1cccc(Nc2nc(NC3CCNCC3)nc3sccc23)c1 [drawing 267]
criterion not met
